B1: Receptor-interacting serine/threonine-protein kinase 2, residues 438 to 518; numbered along this chain, O43353 (parent)
chain: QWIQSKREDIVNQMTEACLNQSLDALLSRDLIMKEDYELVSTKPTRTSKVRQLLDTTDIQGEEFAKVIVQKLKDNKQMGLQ

Variants of: B1
protocol-text: abundance fitness (aPCA) (normalised: wild type 0, dead -1); higher = more abundant; growth selection in yeast, the domain comes from the species named
measurement-context: Homo sapiens
Kindly state abundance fitness for each of the entries shown.
One number for each entry.

Completed entries (count: 5):
>  <mutation-string>
V69H

>  <abundance fitness>
-0.508

$$$$
>  <mutation-string>
D74R

>  <abundance fitness>
-0.49

$$$$
>  <mutation-string>
P44Y

>  <abundance fitness>
-0.2

$$$$
>  <mutation-string>
T56H

>  <abundance fitness>
-0.206

$$$$
>  <mutation-string>
L31M

>  <abundance fitness>
-0.204

$$$$

Here is another variant to look at.
Can you look up the measured abundance fitness of `V50T` for me?
-0.505

FYI, the data here is from the Human Domainome abundance scans (Beltran et al. 2025).
